# System: Clostridium sporogenes DSM 1664
# assay.details: growth (OD595) fold change vs plate DMSO controls (fold change (ratio)); higher = more growth
# condition: incubation time: 27 h, anaerobic, 37 °C
Counter-ions that a name gives are not always drawn.
measured.quantity: growth

# compound, measured.quantity, number
records = [
    ("Nc1ccc(S(=O)(=O)Nc2ccc(Cl)nn2)cc1 [Sulfachloropyridazine] (20 µM)", "growth", 1.03),
    ("COc1cc2nc(N(C)CCCNC(=O)C3CCCO3)nc(N)c2cc1OC (stereo unspecified) [Alfuzosin hydrochloride] (20 µM)", "growth", 0.976),
    ("Cc1c(C(=O)NN2CCCCC2)nn(-c2ccc(Cl)cc2Cl)c1-c1ccc(Cl)cc1 [Rimonabant] (20 µM)", "growth", 0.981),
    ("O=S(=O)([O-])NC1CCCCC1.[Na+] [Sodium cyclamate] (50 µM)", "growth", 1.01),
    ("NC[C@@H]1O[C@H](O[C@H]2[C@@H](O)[C@H](O[C@@H]3[C@@H](O)[C@H](N)C[C@H](N)[C@H]3O[C@H]3O[C@H](CO)[C@@H](O)[C@H](O)[C@H]3N)O[C@@H]2CO)[C@H](N)[C@@H](O)[C@@H]1O [Paromomycin sulfate] (20 µM)", "growth", 1.06),
    ("NS(=O)(=O)c1cc2c(cc1Cl)NCNS2(=O)=O [Hydrochlorothiazide] (20 µM)", "growth", 0.895),
    ("C[C@H](NCc1ccc(OCc2cccc(F)c2)cc1)C(N)=O [Safinamide] (20 µM)", "growth", 0.894),
    ("Nc1ccc(/N=N/c2ccccc2)c(N)n1 [Phenazopyridine hydrochloride] (20 µM)", "growth", 1.12),
    ("CN1CCC[C@@H]1Cc1c[nH]c2ccc(CCS(=O)(=O)c3ccccc3)cc12 [Eletriptan] (20 µM)", "growth", 0.866),
    ("CC(=O)OCC(=O)[C@@]1(O)[C@H](C)C[C@H]2[C@@H]3CCC4=CC(=O)C=C[C@]4(C)[C@@]3(F)[C@@H](O)C[C@@]21C [Dexamethasone acetate] (20 µM)", "growth", 1.05),
    ("COc1cc(NC(C)CCCN)c2ncccc2c1 (stereo unspecified) [Primaquine diphosphate] (20 µM)", "growth", 1.08),
    ("COc1ccc2cc(CCC(C)=O)ccc2c1 [Nabumetone] (20 µM)", "growth", 1),
    ("O=C(O)c1cc(=O)c2c(OCC(O)COc3cccc4oc(C(=O)O)cc(=O)c34)cccc2o1 [Cromolyn disodium salt] (20 µM)", "growth", 1.06),
    ("Cc1onc(-c2c(Cl)cccc2Cl)c1C(=O)N[C@@H]1C(=O)N2[C@@H]1SC(C)(C)[C@@H]2C(=O)O [Dicloxacillin sodium salt hydrate] (20 µM)", "growth", 0.000771),
    ("Cc1cc(C(C)(C)C)c(O)c(C)c1CC1=NCCN1 [Oxymetazoline hydrochloride] (20 µM)", "growth", 0.934),
    ("CC1(C)S[C@@H]2[C@H](NC(=O)C(C(=O)O)c3ccccc3)C(=O)N2[C@H]1C(=O)O (stereo partly specified) [Carbenicillin disodium salt] (20 µM)", "growth", 0),
]

----------
# Test system: Klebsiella aerogenes DSM 30053
# assay.details: fold change of Histamine concentration vs plate DMSO controls (fold change (ratio)); higher = more amine produced, active = hit call of the paper (significant change in both replicates, either direction)
# condition: incubation time: 27 h, anaerobic, 37 °C
Counter-ions that a name gives are not always drawn.

# compound, fold change of Histamine concentration
rows = [
    ("OC[C@@H](O)[C@@H](O)[C@H](O)[C@H](O)CO [Mannitol] (50 µM)", 1.04),
    ("c1ccc(CN(CC2=NCCN2)c2ccccc2)cc1 [Antazoline hydrochloride] (20 µM)", 1.06),
    ("Cc1nn(C)c(Oc2ccccc2)c1/C=N/OCc1ccc(C(=O)OC(C)(C)C)cc1 (20 µM)", 0.993),
    ("NC(=O)c1ncn([C@@H]2O[C@H](CO)[C@@H](O)[C@H]2O)c1O [Mizoribine] (20 µM)", 0.951),
    ("CC(=O)[C@@]1(O)CC[C@H]2[C@@H]3C[C@H](C)C4=CC(=O)C=C[C@]4(C)[C@@]3(F)[C@@H](O)C[C@@]21C [Fluorometholone] (20 µM)", 1.05),
    ("N/C(=N\\C(=O)c1nc(Cl)c(N)nc1N)NCc1ccccc1 [Benzamil hydrochloride] (20 µM)", 0.932),
    ("CN1CCN(CCCN2c3ccccc3Sc3ccc(S(=O)(=O)N(C)C)cc32)CC1 [Thioproperazine dimesylate] (20 µM)", 0.898),
    ("Clc1cccc(Cl)c1NC1=NCCN1 [Clonidine hydrochloride] (20 µM)", 1.04),
    ("CCCCc1cc2ccccc2c(OCCN(C)C)n1 [Dimethisoquin hydrochloride] (20 µM)", 0.872),
    ("O=P(O)(O)C(O)(Cn1ccnc1)P(=O)(O)O [Zoledronic acid hydrate] (20 µM)", 1.08),
    ("CNNCc1ccc(C(=O)NC(C)C)cc1 [Procarbazine hydrochloride] (20 µM)", 1.05),
    ("O=C1[C@@H]2[C@H]3CC[C@H](C3)[C@@H]2C(=O)N1CCCCN1CCN(c2ncccn2)CC1 [Tandospirone] (20 µM)", 0.981),
    ("Nc1ccc(S(=O)(=O)Nc2cnc3ccccc3n2)cc1 [Sulfaquinoxaline sodium salt] (20 µM)", 1.04),
    ("Cc1c(N)c(=O)n(-c2ccccc2)n1C [Ampyrone] (20 µM)", 0.947),
    ("CN(C)CCCC1(c2ccc(F)cc2)OCc2cc(C#N)ccc21 (centres undefined) [Citalopram hydrobromide] (20 µM)", 0.919),
    ("COc1cccc2c1C(=O)c1c(O)c3c(c(O)c1C2=O)C[C@@](O)(C(C)=O)C[C@@H]3O[C@H]1C[C@H](N)[C@H](O)[C@H](C)O1 [Daunorubicin hydrochloride] (20 µM)", 1.01),
    ("C[C@@H]1C[C@H]2[C@@H]3C[C@H](F)C4=CC(=O)C=C[C@]4(C)[C@@]3(Cl)[C@@H](O)C[C@]2(C)[C@H]1C(=O)COC(=O)C(C)(C)C [Clocortolone pivalate] (20 µM)", 1.04),
    ("CCN[C@@H]1C[C@H](N)[C@@H](O[C@H]2OC(CN)=CC[C@H]2N)[C@H](O)[C@H]1O[C@H]1OC[C@](C)(O)[C@H](NC)[C@H]1O [Netilmicin sulfate] (20 µM)", 0.845),
    ("COc1cc(C(=O)N2CCOCC2)cc(OC)c1OC [Trimetozine] (20 µM)", 0.989),
]

Numbers sourced from the supplement of paper PMC12494721.
